The measurements presented in this section are drawn from patent EP2818471A1.

- System: beta-TC6 cells
- Experiment Description: Insulin HTRF assay, relative activity Ar normalized to sunitinib
- Assay type: cell-based
- Conditions: Mus musculus, normalized to positive control sunitinib (5 µM = 100%), Table 10
Measure: Emax

c1ccc(-c2cn3c(-c4ccc5c(c4)OCO5)cnc3cn2)cc1; 50 to 100%
CN(C)c1ccc(-c2cnc3cnc(-c4cccc(NS(C)(=O)=O)c4)cn23)cc1; 20 to 50%
COc1cc(OC)cc(-c2cn3c(-c4cccs4)cnc3cn2)c1; 20 to 50%
Cn1cc(-c2cnc3cnc(-c4ccncc4)cn23)cn1; 20 to 50%
CN(C)CCNC(=O)c1ccc(-c2cn3c(-c4ccc(N(C)C)cc4)cnc3cn2)cc1; 50 to 100%
Cc1ccccc1-c1cn2c(-c3ccc4c(c3)OCO4)cnc2cn1; 20 to 50%

Lab note: measured Emax of "COc1cc(-c2cnc3cnc(-c4ccc(NCCN5CCOCC5)nc4)cn23)ccc1O" was 20 to 50%

Lab note: measured Emax of "Oc1cccc(-c2cnc3cnc(/C=C/c4ccccc4)cn23)c1" was 20 to 50%

Lab note: measured Emax of "O=S1(=O)CCN(CC#Cc2ccc3nnc(-c4cscn4)n3c2)CC1" was 10 to 20%

Lab note: measured Emax of "O=C(NCCO)c1ccc(-c2cnc3cccnn23)cc1" was 10 to 20%

Lab note: measured Emax of "Oc1cccc(-c2cnc3cnc(-c4cc5ccccc5s4)cn23)c1" was 50 to 100%

----------
Entries and their Emax
- System: beta-TC6 cells
- Experiment Description: Insulin HTRF assay, relative activity Ar normalized to sunitinib
- Format: cell-based
- Conditions: Mus musculus, normalized to positive control sunitinib (5 µM = 100%), Table 10

CN(C)c1ccc(-c2cnc3cnc(-c4cccc(C(=O)NCCO)c4)cn23)cc1; 20 to 50%
COc1cc(-c2cn3c(-c4ccccc4Cl)cnc3cn2)ccc1O; 20 to 50%
OCC#Cc1ccc2nnc(-c3ccc4c(c3)OCO4)n2c1; 20 to 50%
c1cncc(CCNc2ccc3ncc(-c4ccc5ccccc5c4)n3n2)c1; 10 to 20%
Oc1cccc(-c2nnc3ccc(-c4ccc(F)cc4)cn23)c1; 50 to 100%
CNc1ccc2ncc(-c3ccccc3O)n2n1; 20 to 50%
FC(F)(F)c1cccc(-c2cnc3ccc(-c4ccncc4)nn23)c1; 20 to 50%
COc1cc(-c2cn3c(-c4ccc5ncccc5c4)cnc3cn2)cc(OC)c1OC; 20 to 50%

Lab note: measured Emax of "COc1ccc(-c2cnc3cnc(-c4ccc(CO)cc4)cn23)cc1" was 50 to 100%

----------
- Target Under Test: full length human Scyl1 (1-808) protein (Homo sapiens, UniProt Q96KG9)
- Construct: The target enzyme used was the full length human Scyl1 (1-808) protein
- Sequence (Q96KG9 whole entry): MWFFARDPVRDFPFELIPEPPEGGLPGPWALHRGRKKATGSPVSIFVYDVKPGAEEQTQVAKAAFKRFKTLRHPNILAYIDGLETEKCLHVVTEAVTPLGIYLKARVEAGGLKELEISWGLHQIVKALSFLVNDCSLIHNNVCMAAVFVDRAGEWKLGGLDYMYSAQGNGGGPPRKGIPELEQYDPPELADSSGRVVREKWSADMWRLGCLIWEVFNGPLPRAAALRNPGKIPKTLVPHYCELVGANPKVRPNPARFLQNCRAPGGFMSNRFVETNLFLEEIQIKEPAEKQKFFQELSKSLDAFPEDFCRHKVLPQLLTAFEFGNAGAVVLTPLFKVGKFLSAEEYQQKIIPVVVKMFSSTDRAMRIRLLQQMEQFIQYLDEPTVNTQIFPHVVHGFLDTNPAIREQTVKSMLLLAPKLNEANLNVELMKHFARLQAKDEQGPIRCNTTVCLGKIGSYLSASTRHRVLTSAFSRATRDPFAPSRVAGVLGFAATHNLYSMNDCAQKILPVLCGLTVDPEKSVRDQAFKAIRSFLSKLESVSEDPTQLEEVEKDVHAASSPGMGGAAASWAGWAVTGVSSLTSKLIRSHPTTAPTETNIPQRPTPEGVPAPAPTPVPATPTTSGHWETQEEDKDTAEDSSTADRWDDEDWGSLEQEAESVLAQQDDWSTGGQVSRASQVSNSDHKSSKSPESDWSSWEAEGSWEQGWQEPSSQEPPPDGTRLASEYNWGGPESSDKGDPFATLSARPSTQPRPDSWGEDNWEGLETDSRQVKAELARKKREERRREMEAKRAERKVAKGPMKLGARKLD
- Experiment Description: SCYL1 reporter probe displacement assay
- Format: binding
- Conditions: Scyl1 probe displacement
Measure: IC50 (nM)
Report the value in nM with no unit label.

Lab note: measured IC50 of "COc1cc(-c2ccc3ncc(-c4cccnc4)n3n2)cc(OC)c1OC" was 500

----------
Entries and their Emax
- System: beta-TC6 cells
- Experiment Description: Insulin HTRF assay, relative activity Ar normalized to sunitinib
- Assay type: cell-based
- Conditions: Mus musculus, normalized to positive control sunitinib (5 µM = 100%), Table 10

Worked examples, 4 compounds total:
CN(C)c1cccc(-c2ccc3ncc(-c4cccs4)n3n2)c1 [compound 155]; 20 to 50%
CS(=O)(=O)Nc1cccc(-c2cn3c(-c4cccnc4)cnc3cn2)c1 [compound 318]; 20 to 50%
COc1ccc(-c2nnc3ccc(-c4cccs4)cn23)cc1OC [compound 191]; 50 to 100%
CN(C)c1cccc(-c2cnc3cnc(-c4cccs4)cn23)c1 [compound 345]; 20 to 50%

Turning now to a further compound:
Lab note: measured Emax of Nc1cccc(-c2cnc3ccc(NC4CCOCC4)nn23)c1 [compound 33] was 20 to 50%

----------
- Test system: beta-TC6 cells
- Experiment Description: Insulin HTRF assay, relative activity Ar normalized to sunitinib
- Assay type: cell-based
- Conditions: Mus musculus, normalized to positive control sunitinib (5 µM = 100%), Table 10
Measure: Emax

CN(C)C(=O)c1ccc(-c2cnc3cnc(-c4ccccc4Oc4ccccc4)cn23)cc1; 20 to 50%
Cc1cc(-c2cnc3cccnn23)cc(C)c1O; 10 to 20%
O=C(c1ccc(-c2ccc3nnc(-c4cccc(C(F)(F)F)c4)n3c2)cc1)N1CCOCC1; 20 to 50%

Turning now to a further molecule:
Lab note: measured Emax of "Cc1cc(-c2cn3c(-c4ccc5ncccc5c4)cnc3cn2)cc(C)c1O" was 20 to 50%

----------
- Tested on: beta-TC6 cells
- Experiment Description: Insulin HTRF assay, relative activity Ar normalized to sunitinib
- Type: cell-based
- Conditions: Mus musculus, normalized to positive control sunitinib (5 µM = 100%), Table 10
Entries and their Emax

Worked examples, 2 molecules total:
COc1ccc(-c2cnc3ccc(NCc4cccs4)nn23)c(OC)c1 [compound 6]; 20 to 50%
CN(C)c1cccc(-c2cnc3cnc(-c4ccsc4)cn23)c1 [compound 343]; 50 to 100%

Lab note: measured Emax of c1csc(-c2cn3c(-c4ccc5c(c4)OCO5)cnc3cn2)c1 [compound 306] was 50 to 100%

Lab note: measured Emax of O=C(O)CCc1ccc(-c2cnc3cnc(-c4ccccc4CO)cn23)cc1 [compound 333] was 20 to 50%

Lab note: measured Emax of COc1ccc(-c2cnc3cnc(-c4ccc(N)nc4)cn23)cc1 [compound 363] was 20 to 50%

----------
Entries and their Emax
- System: beta-TC6 cells
- Experiment Description: Insulin HTRF assay, relative activity Ar normalized to sunitinib
- Assay type: cell-based
- Conditions: Mus musculus, normalized to positive control sunitinib (5 µM = 100%), Table 10

CN1CCN(c2ccc(-c3cn4c(-c5ccc(C(=O)N(C)C)cc5)cnc4cn3)cn2)CC1 [compound 429]; 20 to 50%
CC(=O)c1ccc(-c2cnc3cccnn23)cc1 [compound 87]; 10 to 20%
Cn1ccc2cc(-c3cnc4cnc(-c5cccc(C(=O)NCCO)c5)cn34)ccc21 [compound 399]; 20 to 50%
COc1cncc(-c2cnc3ccc(Cc4ccc(F)cc4)nn23)c1 [compound 122]; 20 to 50%
Oc1ccc(-c2cnc3cnc(-c4ccc(Cl)cc4)cn23)cc1 [compound 324]; 20 to 50%
Nc1ccc(-c2cn3c(-c4ccc5c(c4)OCO5)cnc3cn2)cn1 [compound 309]; 10 to 20%
CCOc1cccc(-c2cn3c(-c4ccc5c(c4)OCO5)cnc3cn2)c1 [compound 302]; 50 to 100%
COc1cc(-c2cnc3cnc(-c4ccc5c(c4)OCO5)cn23)ccc1O [compound 394]; 20 to 50%

Lab note: measured Emax of COc1ccccc1-c1ccc2ncc(-c3cccc(OC(F)(F)F)c3)n2n1 [compound 115] was 10 to 20%

Lab note: measured Emax of CC(=O)Nc1cccc(-c2ccc3nnc(-c4ccccc4)n3c2)c1 [compound 165] was 50 to 100%

Lab note: measured Emax of CSc1ccccc1-c1cnc2cccnn12 [compound 86] was 50 to 100%

Lab note: measured Emax of CN1CCN(C(=O)c2cccc(-c3cnc4cnc(-c5ccc(CNc6ccccc6)cc5)cn34)c2)CC1 [compound 359] was 10 to 20%

----------
- Target Under Test: full length Grk5 (Homo sapiens, UniProt P34947)
- Sequence (P34947 whole entry): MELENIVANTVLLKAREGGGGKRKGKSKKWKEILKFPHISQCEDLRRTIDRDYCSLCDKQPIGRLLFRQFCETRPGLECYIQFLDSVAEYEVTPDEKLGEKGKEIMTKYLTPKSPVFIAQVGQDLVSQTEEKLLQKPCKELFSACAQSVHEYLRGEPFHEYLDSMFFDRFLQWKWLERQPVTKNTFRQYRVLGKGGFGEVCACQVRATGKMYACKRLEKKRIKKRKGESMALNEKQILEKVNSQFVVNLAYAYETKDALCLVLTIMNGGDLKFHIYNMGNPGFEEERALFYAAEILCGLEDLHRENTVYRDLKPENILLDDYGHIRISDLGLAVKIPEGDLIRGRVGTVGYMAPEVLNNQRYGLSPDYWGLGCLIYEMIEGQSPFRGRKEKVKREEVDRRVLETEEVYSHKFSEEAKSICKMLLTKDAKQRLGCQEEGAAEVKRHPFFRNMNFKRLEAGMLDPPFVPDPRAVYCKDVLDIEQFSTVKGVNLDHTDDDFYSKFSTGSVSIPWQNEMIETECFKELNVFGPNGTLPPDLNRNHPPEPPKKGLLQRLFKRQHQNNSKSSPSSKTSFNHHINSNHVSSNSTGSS
pIC50: −log10 of the molar value.
Measure: pIC50

Lab note: measured pIC50 of NC(=O)c1ccc(-c2cnc3ccc(Cc4ccc(F)cc4)nn23)cc1 [compound 1] was 4.10 to 4.70

----------
- Tested on: beta-TC6 cells
- Experiment Description: Insulin HTRF assay, relative activity Ar normalized to sunitinib
- Type: cell-based
- Conditions: Mus musculus, normalized to positive control sunitinib (5 µM = 100%), Table 10
Measure: Emax

CN(C)c1cccc(-c2ccc3nnc(-c4cscn4)n3c2)c1; 50 to 100%
OCc1cccc(-c2cnc3cnc(-c4ccccc4)cn23)c1; 20 to 50%
c1csc(-c2cn3c(-c4ccncc4)cnc3cn2)c1; 20 to 50%
COc1ccc(-c2ccc3nnc(-c4ccncc4)n3c2)cc1OC; 20 to 50%
CC(C(=O)Nc1cnc2cnc(-c3ccc4c(c3)OCO4)cn12)c1ccccc1 (stereo not drawn); 20 to 50%
OCc1cccc(-c2ccc3nnc(-c4ccccn4)n3c2)c1; 20 to 50%

Lab note: measured Emax of "CS(=O)(=O)Nc1ccc(-c2cnc3cccnn23)cc1" was 10 to 20%

Lab note: measured Emax of "O=C(NC1CC1)c1ccc(-c2cn3c(-c4ccccc4)cnc3cn2)cc1" was 20 to 50%

Lab note: measured Emax of "COc1ccc(-c2cnc3cnc(-c4ccc(N5CCN(C)CC5)cc4)cn23)cn1" was 20 to 50%

----------
- Test system: beta-TC6 cells
- Experiment Description: Insulin HTRF assay, relative activity Ar normalized to sunitinib
- Assay type: cell-based
- Conditions: Mus musculus, normalized to positive control sunitinib (5 µM = 100%), Table 10
Measure: Emax

OCc1ccc(-c2cnc3cnc(-c4ccc(Cl)cc4Cl)cn23)cc1 [compound 374]; 20 to 50%
COc1cccc(CC(=O)Nc2cnc3cnc(-c4ccccc4CN(C)C)cn23)c1 [compound 252]; 20 to 50%

Lab note: measured Emax of Fc1cccc(-c2cnc3cnc(-c4ccc(N5CCNCC5)cc4)cn23)c1 [compound 387] was 10 to 20%

Lab note: measured Emax of CN(C)c1ccc(-c2cnc3cnc(-c4ccccc4N(C)C)cn23)cc1 [compound 283] was 20 to 50%

Lab note: measured Emax of NC(=O)c1ccc(-c2ccc3ncc(-c4ccccc4)n3n2)cc1 [compound 100] was 20 to 50%
